These data points were gathered from PubChem BioAssay (NCI).

# TGI values compiled below
# Test system: DMS 273 small cell lung
# MEASUREMENT_PROTOCOL: NCI tumour cell line growth inhibition, 48 h

COMPOUND	SYSTEM	TGI
Cn1c(=O)c2c3oc(=O)cc(O)c3c(=O)n3c4ccccc4n(c1=O)c23	DMS 273 small cell lung	> 100 µM
CC(C)c1ccc(/C=C(\NC(=O)c2ccccc2)c2nc3ccccc3[nH]2)cc1	DMS 273 small cell lung	> 100 µM
COC(=O)c1c(C)oc2ccc(OC(C)=O)cc12	DMS 273 small cell lung	> 100 µM
C=C1C(=O)O[C@H]2C1[C@H](OC(=O)/C(C)=C\COC(C)=O)C[C@]1(CO1)[C@@H]1[C@H](O)[C@H]3O[C@@]3(C)[C@@H]12 (stereo not given in full)	DMS 273 small cell lung	> 63.2 µM
COc1ccc([Se]c2ccc(OC)cc2OC)c(OC)c1	DMS 273 small cell lung	17.6 µM

====

# TGI values compiled below
# System: UACC-62 melanoma
# MEASUREMENT_PROTOCOL: NCI tumour cell line growth inhibition, 48 h

MOLECULE	TGI
O=C1[C@H]2C(c3ccccc3)=NN(C(=O)c3ccccc3)[C@H]2C(=O)N1c1ccccc1	> 100 µM
O=CNc1cccc2c3c([nH]c12)CCCCCC3	> 100 µM
NC1=NS(=O)(=O)N=C(N)C1=Cc1ccc([N+](=O)[O-])o1	30.2 µM
[N-]=[N+]=NC1(c2ccccc2)C(=O)Nc2ccccc2C1=O (stereo not given)	76.3 µM
COc1cc2ccn3c4cc(OC)c(OC)cc4cc3c2cc1OC	> 100 µM
C/C(=C(/c1ccc(O)cc1)c1ccc(OCCN2CCCC2)cc1)c1ccccc1	4.72 µM
c1ccc(SCCCC(Sc2ccccc2)Sc2ccccc2)cc1	> 100 µM
CN(C)CCCn1c2ccccc2c2cnccc21	> 100 µM
CCOC(=O)CCC(NC(=O)OCc1ccccc1)C(=O)NNC(=O)OC(C)(C)C (stereo not given)	> 100 µM
CN(C)c1ccc(/C=C(\NC(=O)c2ccccc2)C(=O)Nc2ccccc2C(=O)NN2C(=O)CSC2c2ccc(N(C)C)cc2)cc1 (stereo not given)	> 100 µM

====

# Test system: HCT-15 colon
# MEASUREMENT_PROTOCOL: NCI tumour cell line growth inhibition, 48 h
Where a SMILES comes first, the peptide text is derived from it. [ ]: non-standard residue; d: D form. The star is where a group is joined. ξ: configuration not given here. NMeY = CN[C@@H](Cc1ccc(O)cc1)C(=O)O; Cbz = O=C(OCc1ccccc1)*; ξA = CC(N)C(=O)O
# TGI values compiled below

COMPOUND	SYSTEM	TGI
O=C(OCc1ccccc1CN1CCOCC1)c1ccc(Br)cc1	HCT-15 colon	> 100 µM
O=C1CCC2(CC1)Cc1ccccc1C2O (centres undefined)	HCT-15 colon	> 100 µM
O=C1CCC2(CCC(=O)NC2=O)C(=O)N1	HCT-15 colon	> 100 µM
O=C1c2cc3c(cc2CC12Cc1cc4c(cc1C2)CCC4)CCC3	HCT-15 colon	> 100 µM
Cc1ccc(NC(=O)CCC(=O)C2CC(=O)CC/C2=N\NC(=O)c2cc3ccccc3cc2O)cc1C (centres undefined)	HCT-15 colon	> 100 µM
C=C(CCOC)CCC1CCCCC(=C)C1=O (centres undefined)	HCT-15 colon	> 100 µM
COc1ccccc1C1C(C#N)=C(N)OC2=C1C(=O)CCC2 (centres undefined)	HCT-15 colon	> 100 µM
NC(Cc1nn[nH]n1)C(=O)O (centres undefined)	HCT-15 colon	> 100 µM
COc1c(O)c(OC)c(C(=O)/C=C/c2ccccc2)c(O)c1OC	HCT-15 colon	> 100 µM
COC(=O)C12CC(C3CC31)C1CC12 (centres undefined)	HCT-15 colon	> 100 µM
CSc1c(C(C)=O)c(O)n(-c2ccc(Cl)cc2)c(=O)c1C#N	HCT-15 colon	99.5 µM
COc1ccc(C[C@@H](C(=O)NCC(N)=O)N(C)C(=O)[C@@H]2CCCN2C(=O)[C@H](CC(C)C)NC(=O)C(C)NC(=O)OCc2ccccc2)cc1 (some centres undefined) (Cbz-[ξA]LP[NMeY](Me)G-NH2)	HCT-15 colon	> 100 µM
CN(C)c1ccc(C(=NNC(=O)c2cc3ccccc3[nH]2)c2ccc(N(C)C)cc2)cc1	HCT-15 colon	> 100 µM
COC(=O)/C(C#N)=C1\N=NNN1CCCN1CCOCC1	HCT-15 colon	> 100 µM
CC1=NNC(N)=N/C1=C/C(Sc1ccc(Cl)cc1)c1cccs1 (centres undefined)	HCT-15 colon	30 µM
Cn1c(N)c(/C=N/NC(=O)CC#N)c(=O)n(C)c1=O	HCT-15 colon	> 100 µM
CC1(C)N=C(N)N=C(N)N1c1ccc(OCC(=O)Nc2cccc(S(=O)(=O)F)c2)c(Cl)c1	HCT-15 colon	> 100 µM
COc1ccc(N2C(=O)C3c4[nH]c5ccc(C)cc5c4C4CCC(C(C)C)CC4C3C2=O)cc1 (centres undefined)	HCT-15 colon	> 100 µM
COc1ccc(S(=O)(=O)N/N=C/C(=O)O)cc1	HCT-15 colon	1080 µM
COc1ccc2c(c1O)[C@@]13C=C(O)C(=O)C=C1[C@@H](C2)N(C)CC3	HCT-15 colon	> 100 µM
CCOC(=O)CCC(NC(=O)OCc1ccccc1)C(=O)NNC(=O)OC(C)(C)C (centres undefined)	HCT-15 colon	> 100 µM
CC(=O)N(C(C)=O)n1c(Cc2ccc(Cl)cc2)nn(C(C)=O)c1=O	HCT-15 colon	> 100 µM
C=C1C(=O)O[C@H]2C1[C@H](OC(=O)/C(C)=C\COC(C)=O)C[C@]1(CO1)[C@@H]1[C@H](O)[C@H]3O[C@@]3(C)[C@@H]12 (some centres undefined)	HCT-15 colon	> 56.1 µM
O=C1OCC(C(=O)c2cccc(O)c2)C1=O (centres undefined)	HCT-15 colon	> 100 µM
CN(C)c1ccc(/C=C(\NC(=O)c2ccccc2)C(=O)Nc2ccccc2C(=O)NN2C(=O)CSC2c2ccc(N(C)C)cc2)cc1 (centres undefined)	HCT-15 colon	> 100 µM
CCOC(=O)c1[nH]c2c(c1C)-c1[nH]c(=O)c(S(=O)(=O)c3ccccc3)cc1SC2	HCT-15 colon	> 100 µM
O=C1c2ccccc2-c2ccc(NC(=O)C3CCCCC3C(=O)O)cc21 (centres undefined)	HCT-15 colon	> 100 µM
O=C(CCCCCCCCCCc1ccccc1)c1c(O)cccc1O	HCT-15 colon	38.7 µM
[N-]=[N+]=NC1(c2ccccc2)C(=O)Nc2ccccc2C1=O (centres undefined)	HCT-15 colon	> 100 µM
